normalized growth: recorded values
experiment: chemical genetic growth profiling, strain panel (AID 1159580);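 note: tested at 20 µM; growth read once vehicle control cultures reached saturation at 30 °C; 1 = growth at the plate median or of vehicle wells; lower values mean less growth of the strain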; conditions: S. cerevisiae deletion strains, growth OD, locus YJR066W, strain TOR1, hits give low values
About 2,000 (36%) of roughly 5,500 compounds were called active. Roughly 18% stayed inconclusive and do not appear here. Some of the results follow.
API doc: respond with a numeric literal and nothing else, no unit.

Cc1cc(CC(=O)O)n(C)c1C(=O)c1ccc(Cl)cc1: 0.954
CN(C)C(=O)Oc1ccc[n+](C)c1: 0.966
Clc1cc(Cl)cc(C=NCc2ccccc2)c1: 0.433
NCCCCNCCCN: 0.931
Cc1ccc(C(=O)c2ccc(CC(=O)O)n2C)cc1: 0.929

So what does the record say about normalized growth for CC(C)=CC1C(C(=O)OCc2cccc(Oc3ccccc3)c2)C1(C)C (configuration not stated) ? 0.896

So what does the record say about normalized growth for COc1cc(NS(C)(=O)=O)ccc1Cc1c2ccccc2nc2ccccc12 ? 0.919

So what does the record say about normalized growth for Cc1ncc([N+](=O)[O-])n1CC(O)CCl (configuration not stated) ? 0.956

So what does the record say about normalized growth for CC(=O)O[C@H]1C[C@@]2(C)[C@@H](C[C@@H](O)C3[C@]2(C)CC[C@H]2[C@H](C)[C@H](O)CC[C@]32C)/C1=C(/CCC=C(C)C)C(=O)O (some centres not stated) ? 0.983

So what does the record say about normalized growth for OC[C@H]1O[C@@H](n2cnc3c(NCc4ccco4)ncnc32)[C@H](O)[C@@H]1O ? 0.974

So what does the record say about normalized growth for NC(=O)CS(=O)C(c1ccccc1)c1ccccc1 (configuration not stated) ? 0.977

So what does the record say about normalized growth for c1cncc(C2=NCCC2)c1 ? 0.938
